# study_target: Sodium/nucleoside cotransporter 2 (Homo sapiens, UniProt O43868)
# Sequence (O43868 whole entry): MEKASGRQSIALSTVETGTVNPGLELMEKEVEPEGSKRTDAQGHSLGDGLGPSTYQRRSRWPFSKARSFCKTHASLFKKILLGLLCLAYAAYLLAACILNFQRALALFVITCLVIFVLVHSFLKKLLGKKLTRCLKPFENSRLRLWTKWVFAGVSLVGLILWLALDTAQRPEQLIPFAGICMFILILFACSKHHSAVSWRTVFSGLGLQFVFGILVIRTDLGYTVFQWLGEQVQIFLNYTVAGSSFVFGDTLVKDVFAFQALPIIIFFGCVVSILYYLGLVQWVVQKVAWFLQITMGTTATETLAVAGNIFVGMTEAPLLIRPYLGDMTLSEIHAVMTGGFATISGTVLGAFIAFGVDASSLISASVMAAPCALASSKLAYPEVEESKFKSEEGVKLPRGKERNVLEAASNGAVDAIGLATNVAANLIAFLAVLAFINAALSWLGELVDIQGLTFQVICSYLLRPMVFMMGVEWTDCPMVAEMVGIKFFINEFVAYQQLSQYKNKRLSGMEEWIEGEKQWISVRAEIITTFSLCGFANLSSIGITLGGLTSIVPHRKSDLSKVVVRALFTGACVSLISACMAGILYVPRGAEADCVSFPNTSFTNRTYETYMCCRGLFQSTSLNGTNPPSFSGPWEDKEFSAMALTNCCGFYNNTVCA
# protocol_notes: Inhibition of human CNT2 expressed in African green monkey COS7 cells assessed as reduction of [14C]-inosine uptake by liquid scintillation counting analysis
pIC50: −log10 of the molar value.
readout_type: pIC50

Some solved entries appear below for comparison.
{"compound_structure_string": "Nc1ncnc2c1nc(NCc1ccc(-c3cccnc3)cc1)n2[C@@H]1O[C@H](CO)[C@@H](O)[C@H]1O", "test_value": 6.00}
{"compound_structure_string": "Nc1ncnc2c1nc(NCc1ccc(-c3ccncc3)cc1)n2[C@@H]1O[C@H](CO)[C@@H](O)[C@H]1O", "test_value": 5.57}
{"compound_structure_string": "CCOc1cc(CNc2nc3c(N)ncnc3n2[C@@H]2O[C@H](CO)[C@@H](O)[C@H]2O)ccc1-c1ccccc1", "test_value": 5.64}
{"compound_structure_string": "Nc1ncnc2c1nc(NCc1ccc(-c3ccccc3)c(OCCCCCO)c1)n2[C@@H]1O[C@H](CO)[C@@H](O)[C@H]1O", "test_value": 5.80}
{"compound_structure_string": "Nc1ncnc2c1nc(NCc1ccc(-c3ccccc3)cc1O)n2[C@@H]1O[C@H](CO)[C@@H](O)[C@H]1O", "test_value": 5.89}
{"compound_structure_string": "Nc1ncnc2c1nc(NCc1ccc(-c3ccccc3)c(OCCCO)c1)n2[C@@H]1O[C@H](CO)[C@@H](O)[C@H]1O", "test_value": 5.96}

(P) Nc1ncnc2c1nc(NCc1ccc(-c3ccccc3)c(O)c1)n2[C@@H]1O[C@H](CO)[C@@H](O)[C@H]1O
(Q) CCOc1cc(-c2ccccc2)ccc1CNc1nc2c(N)ncnc2n1[C@@H]1O[C@H](CO)[C@@H](O)[C@H]1O
Request: I'd appreciate it if you could identify which of P and Q has the greater pIC50. Identify your pick by its label.
Result: P
(P: 5.92, Q: 5.27)
